Measured Ki of individual entries
molecular target: human cannabinoid CB2 receptor (Homo sapiens)
Sequence (P34972 whole entry): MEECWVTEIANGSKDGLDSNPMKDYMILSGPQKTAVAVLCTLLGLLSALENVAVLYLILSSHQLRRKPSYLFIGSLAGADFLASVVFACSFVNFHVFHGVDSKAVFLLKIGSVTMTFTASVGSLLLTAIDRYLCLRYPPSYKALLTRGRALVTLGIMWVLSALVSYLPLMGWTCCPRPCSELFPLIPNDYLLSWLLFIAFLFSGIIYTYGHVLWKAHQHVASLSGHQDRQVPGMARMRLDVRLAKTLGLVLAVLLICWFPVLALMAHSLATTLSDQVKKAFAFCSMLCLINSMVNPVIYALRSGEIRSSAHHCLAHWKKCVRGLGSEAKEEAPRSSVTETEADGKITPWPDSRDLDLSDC
The response must be a number in µM with no trailing unit.

| SMILES_STRUCTURE | Ki, µM |
| --- | --- |
| CSc1c(C(=O)NN2CCCCC2)nn(-c2ccc(Cl)cc2Cl)c1-c1ccc(Cl)cc1 | 0.668 |

Req: Name the recorded Ki for CSc1c(C(=O)NN2CCCC2)nn(-c2ccc(Cl)cc2Cl)c1-c1ccc(Cl)cc1 .
Resp: 0.34
